# system: T1, ECF28_1088
# T1 chain: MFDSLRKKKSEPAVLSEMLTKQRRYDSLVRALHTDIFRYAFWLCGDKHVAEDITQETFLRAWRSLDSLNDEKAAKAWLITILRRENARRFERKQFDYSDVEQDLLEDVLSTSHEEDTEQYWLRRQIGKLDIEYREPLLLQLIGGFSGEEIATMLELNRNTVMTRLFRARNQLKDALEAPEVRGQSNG
readout type: fold repression

binder	fold repression
AS22_4450 (protein) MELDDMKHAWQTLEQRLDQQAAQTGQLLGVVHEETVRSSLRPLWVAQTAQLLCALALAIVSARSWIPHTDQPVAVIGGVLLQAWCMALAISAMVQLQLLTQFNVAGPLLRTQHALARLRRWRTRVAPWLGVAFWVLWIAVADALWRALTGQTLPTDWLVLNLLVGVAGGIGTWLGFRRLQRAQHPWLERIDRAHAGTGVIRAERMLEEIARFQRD	1.18
AS30_35 (protein) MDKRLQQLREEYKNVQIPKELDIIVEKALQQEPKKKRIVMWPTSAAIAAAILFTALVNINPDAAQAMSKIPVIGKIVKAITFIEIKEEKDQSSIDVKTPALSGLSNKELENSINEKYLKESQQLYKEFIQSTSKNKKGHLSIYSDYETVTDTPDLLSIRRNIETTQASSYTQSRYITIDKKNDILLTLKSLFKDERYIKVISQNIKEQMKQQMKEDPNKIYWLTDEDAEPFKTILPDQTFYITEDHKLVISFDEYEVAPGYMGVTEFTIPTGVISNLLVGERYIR	1.68

Read the next record carefully.
Please list fold repression recorded for the binder AS03_1244 (protein) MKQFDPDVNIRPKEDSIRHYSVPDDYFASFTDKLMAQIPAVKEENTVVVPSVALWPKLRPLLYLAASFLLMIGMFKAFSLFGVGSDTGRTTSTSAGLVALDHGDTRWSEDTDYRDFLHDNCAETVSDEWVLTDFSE 1.36
